Assay: Microsomal stability in mouse liver microsomes assessed as parent compound remaining at 4.6 uM preincubated for 15 mins followed by NADPH addition and measured after 60 mins by LC-MS/MS analysis
Type: ADME, Microsome
Details: read-out: Stability
metric.name: remaining at 1 h, 4.6 µM (%)

* CCCCCNC(=O)n1c(=O)oc2cc(C3CCN(C)CC3)ccc21 | 60
